Test system: Cancer Cell
protocol: Cancer cell growth inhibition
Type: cell-based
Design: key: Y is an indication that activity was found
metric: Cancer Cell Growth Inhib.

Below, 8 compounds whose answers are already recorded.
- compound: "CC(Nc1ccc(NC(=O)c2ccc[nH]c2=S)cc1)c1ccccc1 (stereo not drawn)"
  Cancer Cell Growth Inhib.: "Y"
- compound: "O=C(Nc1ccc(NC(=O)N2CCCCCC2)cc1)c1ccc[nH]c1=S"
  Cancer Cell Growth Inhib.: "Y"
- compound: "CSc1ccccc1C(=O)Nc1ccc(NC(=O)CC(C)C)cc1"
  Cancer Cell Growth Inhib.: "Y"
- compound: "CC(Nc1ccc(NC(=O)c2ccc[nH]c2=S)cc1Cl)c1ccccc1 (stereo not drawn)"
  Cancer Cell Growth Inhib.: "Y"
- compound: "CCC(=O)Nc1ccc(Nc2ccc(NC(=O)c3cccnc3S)cc2)cc1"
  Cancer Cell Growth Inhib.: "Y"
- compound: "COc1ccc(Sc2ccc(NC(=O)c3ccc[nH]c3=S)cc2)cc1"
  Cancer Cell Growth Inhib.: "Y"
- compound: "O=C(Nc1ccc(N2CCN(C(=O)c3ccoc3)CC2)cc1)c1ccc(Cl)c(Cl)c1"
  Cancer Cell Growth Inhib.: "Y"
- compound: "CCC(=O)Nc1ccc(NC(=O)c2ccc[nH]c2=S)cc1"
  Cancer Cell Growth Inhib.: "Y"

Inquiry: Data request, read-out Cancer Cell Growth Inhib., for `NC1=C(c2nc3ccccc3s2)C(=O)CN1/N=C\c1ccc(O)c(O)c1`
Reply text: Y
